Assay: Metabolic stability in mouse liver microsomes assessed as clearance at 1 uM preincubated for 10 mins and measured upto 30 mins in presence of NADPH generating system by LC-MS/MS analysis
Assay type: ADME, Microsome
Conditions: time < 40 min
Measurement Type: CLhep predicted at 1 µM (mL/min/kg)

Below, each entry is followed by its recorded CLhep predicted at 1 µM result.
Entry Smiles	Unit Text	CLhep predicted at 1 µM
O=C(Nc1ccccc1)N1CCn2nnc(-c3ccc(F)cc3)c2C1	mL/min/kg	87
O=C(Nc1ccc(Cl)c(F)c1)N1CCn2ncc(-c3ccc(F)cc3)c2C1	mL/min/kg	60
Cc1cc(NC(=O)N2CCn3ncc(-c4ccc(F)cc4)c3C2)ccc1F	mL/min/kg	68
O=C(Nc1cccnc1)N1CCn2ncc(-c3ccc(F)cc3)c2C1	mL/min/kg	49
C[C@H]1[C@H](C)n2ncc(N3CCCC3=O)c2CN1C(=O)Nc1cc(F)c(F)c(F)c1	mL/min/kg	73
C[C@H]1Cn2ncc(N3CCCC3=O)c2CN1C(=O)Nc1cc(F)c(F)c(F)c1	mL/min/kg	29
O=C(Nc1cccnn1)N1CCn2ncc(-c3ccc(F)cc3)c2C1	mL/min/kg	34
O=C(Nc1ccc(F)c(Cl)c1)N1CCn2ncc(N3CCOCC3)c2C1	mL/min/kg	34
O=C(Nc1ccc(F)c(Cl)c1)N1CCn2ncc(-c3ncc(F)cn3)c2C1	mL/min/kg	69
O=C(Nc1ccc(F)c(Cl)c1)N1CCn2ncc(N3CCCC3)c2C1	mL/min/kg	79

(1) O=C(Nc1ccccc1)N1CCn2cnc(-c3ccc(F)cc3)c2C1
(2) C[C@@H]1[C@H](C)N(C(=O)Nc2cc(F)c(F)c(F)c2)Cc2c(N3CCCC3=O)cnn21
// pick min by CLhep predicted at 1 µM: 1 , 2 Reply briefly: the label of your chosen item.
2
